For each record, write down the corresponding INHIBITION.
System: Plasmodium falciparum
measurement-description: Screen against P. falciparum Asexual Blood Stage (ABS), at 5uM
Type: functional, Dd2
run-conditions: tested at 5 uM
About 2,100 (3.2%) of roughly 65,000 compounds showed an effect of 50% or more. The median lay at about -52%. The sample holds strong results, similar compounds and a random draw of the others, so the mix is not that of the screen.
Numbers only, in %.

CNC(=O)c1nc(CN2CCOC(C(F)(F)F)C2)no1 (configuration not stated)	-43.7

Field: INHIBITION. Fill in for each record below.
1. O=C(CCC(F)(F)F)N1CCCC2(CCC(=O)N(CC3CC3)C2)C1 (configuration not stated)
2. CC(C)c1nccc(CN2CCC(O)(CN3CCCCC3)C2)n1 (configuration not stated)
3. Cc1csc(C(=O)N2CCC(O)(CN3CCc4ccccc4C3)C2)c1 (configuration not stated)
4. Cc1cc(C)c(C(=O)N2CCCC(O)(CN3CCCC3)C2)cc1C (configuration not stated)
5. CN(C)C[C@@H]1CN(Cc2ccccc2C#N)C[C@@H]1CO

1. -7.69
2. 32.8
3. -1.9
4. -30.5
5. -47.7

Required: INHIBITION, one value per molecule below.
1. CN(Cc1ccccc1)C(=O)CSc1ccc2c(c1)OCCO2
2. O=C(O)c1cc(-c2ccn(CC3CC3)n2)n2ccccc12
3. Cc1cc(F)ccc1CN1CCCC2(C1)OCCO2

[-122, -74.2, -67.8]

The following molecules each have a reported value; give each one's INHIBITION.
1. CC(=O)N1N=C(COc2ccc3c(c2)OCO3)OC1c1cccc(Cl)c1 (configuration not stated)
2. O=C(CCNC(=O)c1cccc(OC(F)F)c1)Nc1cccnc1
3. COCC(=O)N1CCOC2(CCCN(c3cnccn3)C2)C1 (configuration not stated)

-125
-128
-88.3
